assay.system: p53 Y220C mutant protein (amino acid residues 94-293) (Homo sapiens, UniProt P04637, Y220C)
Construct: p53 Y220C mutant protein (amino acid residues 94-293)
protocol: Surface Plasmon Resonance (SPR) assay, Kd_kinetic
Assay type: binding
test.settings: SPR; p53 Y220C; read-out: SPR P53 Y220C KD kinetic
quantity: Kd

In the examples that follow, each entry is paired with its recorded Kd.
structure: CNC(=O)c1ccc(OC)c(NCC#Cc2nc3c(N[C@H]4[C@H]5CC[C@@H]4NC5)cccn3c2SC(F)(F)F)c1
quantity: Kd
val: < 10 nM
//
structure: CNC(=O)c1ccc(OC)c(NCC#Cc2nn3c(N[C@@H]4CN(C)C[C@@H]4F)cccc3c2SC(F)(F)F)c1
quantity: Kd
val: < 10 nM
//
structure: CNC(=O)c1ccc(NCC#Cc2cc3c(N[C@@H]4CCN(C)C[C@@H]4F)cccn3c2SC(F)(F)F)c(C(F)F)c1
quantity: Kd
val: < 10 nM
//
structure: CNC(=O)c1ccc(C#N)c(NCC#Cc2nc3c(N[C@@H]4CCN(C)C[C@@H]4F)cccn3c2SC(F)(F)F)c1
quantity: Kd
val: < 10 nM
//
structure: CNC(=O)c1ccc(OC)c(NCC#Cc2cn3c(N[C@@H]4CCN(C)C[C@@H]4F)cccc3c2SC(F)(F)F)c1
quantity: Kd
val: < 10 nM
//
structure: CN1CC[C@@H](Nc2cccn3c(SC(F)(F)F)c(C#CCNc4ccc(C(=O)NC[C@@H]5CCO5)cc4)cc23)[C@@H](F)C1
quantity: Kd
val: < 10 nM
//
structure: C[C@H](O)[C@H](C)NC(=O)c1ccc(NCC#Cc2cc3c(N[C@@H]4CCN(C)C[C@@H]4F)cccn3c2SC(F)(F)F)cc1
quantity: Kd
val: < 10 nM
//
structure: COc1cc([S@+](C)[O-])ccc1NCC#Cc1cc2c(N[C@@H]3CCN(C)C[C@@H]3F)cccn2c1SC(F)(F)F
quantity: Kd
val: < 10 nM
//
structure: CNC(=O)c1ccc(NCC#Cc2cc3c(N[C@@H]4CCN(C5COC5)C[C@@H]4F)cccn3c2SC(F)(F)F)c(OC)c1
quantity: Kd
val: < 10 nM
//
structure: CNC(=O)c1ccc(NCC#Cc2cc3c(N[C@@H]4CCN(C)C[C@@H]4F)cccn3c2SC(F)(F)F)c(OCF)c1
quantity: Kd
val: < 10 nM

Request the reported Kd associated with "CN1CC[C@@H](Nc2cccn3c(SC(F)(F)F)c(C#CCNc4ccc(C(N)=O)cc4)nc23)[C@@H](F)C1"
< 10 nM

Same question for "COc1cc(C(N)=O)ccc1NCC#Cc1nn2c(N[C@@H]3CCN(C)C[C@@H]3F)cccc2c1SC(F)F" please.
< 10 nM

Same question for "CN1CC[C@@H](Nc2cccn3c(SC(F)(F)F)c(C#CCNc4ccc(P(C)(C)=O)cc4)nc23)[C@@H](F)C1" please.
< 10 nM

Same question for "CN1CC[C@@H](Nc2cccn3c(SC(F)(F)F)c(C#CCNc4ccc(P(C)(C)=O)cn4)cc23)[C@@H](F)C1" please.
< 10 nM

Same question for "[2H]C([2H])([2H])Oc1cc(S(C)(=O)=O)ccc1NCC#Cc1nn2c(N[C@@H]3CCN(C)C[C@@H]3F)cccc2c1SC(F)(F)F" please.
< 10 nM
